What self-cleavage was measured for each of the following?
B1: LINE1-full (parent)
chain: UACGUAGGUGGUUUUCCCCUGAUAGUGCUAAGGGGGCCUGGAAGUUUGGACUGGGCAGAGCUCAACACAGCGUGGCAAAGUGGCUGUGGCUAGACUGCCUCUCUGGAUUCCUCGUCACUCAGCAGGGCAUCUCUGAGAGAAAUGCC

# Variants of: B1
# Procedure Summary: self-cleavage, relative activity (ratio to wild type); higher = more cleavage; in vitro, sequencing; the parent is a self-cleaving ribozyme
Provide a numeric answer; units are not to be included.

query: May I ask what self-cleavage has been recorded for UACGUAGGUGGUUUUCCCCUGAUAGUGCUAAGGGGGCCUGGAAGUUUGGACUGGGCAGAGCUCAACACAGCGUGGCAAAGUGGCUAUGGCUAGACUGCCUCUCUGGAUUCCUCGUCACUCAGCUGGGCAUCUCUGAGAGAAAUGCC [G86A A124U] ?
result: 0.05

query: May I ask what self-cleavage has been recorded for UACGUAGGUGGUUUUCCCCUGAUAGUGCUAAGGGGGCCUGGAAGUUUGGACUGGGCAGAGCCCAACACAGCGUGGCAAUGUGGCUGUGGCUAGACUGCCUCUCUGGAUUCCUCGUCACUCAGCAGGGCAUCUCUGAGAGAAAUGCC [U62C A79U] ?
result: 0.03

query: May I ask what self-cleavage has been recorded for UACGUUGGUGGUUUUCCCCUGAUAGUGCUAAGGGGGCCUGGAAGUUUGGACUGGGCAGAGCUCAACACAGCGUGGCAAAGUGGCUGUGGCUAGACUGCCUCUCUGGAUUCCUCGUCACUCAGCAGGGCAUCCCUGAGAGAAAUGCC [A6U U132C] ?
result: 1.33

query: May I ask what self-cleavage has been recorded for UACGUGGGUGGUUUUCCCCUGAUAGUGCUAAGGGGGCCUGGAGGUUUGGACUGGGCAGAGCUCAACACAGCGUGGCAAAGUGGCUGUGGCUAGACUGCCUCUCUGGAUUCCUCGUCACUCAGCAGGGCAUCUCUGAGAGAAAUGCC [A6G A43G] ?
result: 1.35

query: May I ask what self-cleavage has been recorded for UACGUAGGUGGUCUUCCCCUGAUAGUGCUAAGGGGGCCUGGAAGUUUGGACUGGGCAGAGCGCAACACAGCGUGGCAAAGUGGCUGUGGCUAGACUGCCUCUCUGGAUUCCUCGUCACUCAGCAGGGCAUCUCUGAGAGAAAUGCC [U13C U62G] ?
result: 0

query: May I ask what self-cleavage has been recorded for UACGUAGGUGGUUUUCCCCUGAUAGUGCUAAGGGGGCCUGGAAGUUUGGGCUGGGCAGAGCUCAACACAGCGUGGCAAAGUGGCUGUGGCUAGACUGCCUCUCUGGACUCCUCGUCACUCAGCAGGGCAUCUCUGAGAGAAAUGCC [A50G U108C] ?
result: 1.2

query: May I ask what self-cleavage has been recorded for UACGUAGGUGGUUUUCCCCAGAUAGUGCUAAGGGGGCCUGGAAGUCUGGACUGGGCAGAGCUCAACACAGCGUGGCAAAGUGGCUGUGGCUAGACUGCCUCUCUGGAUUCCUCGUCACUCAGCAGGGCAUCUCUGAGAGAAAUGCC [U20A U46C] ?
result: 1.49

query: May I ask what self-cleavage has been recorded for UACGUAGGUGGUUUUCCCCUGAUAGUGCUAAGGGGGCCUGGAAGCCUGGACUGGGCAGAGCUCAACACAGCGUGGCAAAGUGGCUGUGGCUAGACUGCCUCUCUGGAUUCCUCGUCACUCAGCAGGGCAUCUCUGAGAGAAAUGCC [U45C U46C] ?
result: 1.84

query: May I ask what self-cleavage has been recorded for UACGUAGGUGGUUUUCCCCUGAUAGUGCUAAGGGGGCCUGGAAGUUUGGACUAGGCAGAGCUCAACACAGCGUGGCAAAGUGGCUGUGGCUAGACUGCCUCUCUGGAUUCCUCGUCACUCAGCAGGGCAUCUCUGAGAGAAAUGCC [G53A] ?
result: 1.32

query: May I ask what self-cleavage has been recorded for UACGUAGGUGGUUUUUCCCUGAUAGUGCUAAGGGGGCCUGGAAGUUUGGACUGGGCAGAGCUCAACACAGCGUGGCAAAGUGGCUGUGGCUAGACUGCCUCUCUGGAUUCCUCGUCACUCAGCAGGGCAUCUCUGAGAGAGAUGCC [C16U A141G] ?
result: 1.13

query: May I ask what self-cleavage has been recorded for UACGUAGGUGGUUUUCCCCUGAUAGCGCUAAGGGGGCCUGGAAGUUUGGACUGGGCAGAGCUCAACACAGCCUGGCAAAGUGGCUGUGGCUAGACUGCCUCUCUGGAUUCCUCGUCACUCAGCAGGGCAUCUCUGAGAGAAAUGCC [U26C G72C] ?
result: 0

query: May I ask what self-cleavage has been recorded for UACGUAGGUGGUUUUCCCCUGAAAGUGCUAAGGGGGCCUGGAAGUUUGGACUGGGCAGAGCUCAACACAGCGUGGCAAAGUGGCUGUGGCUAGACUGCCUCUCUGGAUUCCUCGUCCCUCAGCAGGGCAUCUCUGAGAGAAAUGCC [U23A A117C] ?
result: 1.6

query: May I ask what self-cleavage has been recorded for UACGUAGGUGGUUUUCCCCUGAUAGUGCUAAGGGGGCCUGGAAGUUUGGACCGGGCAGAGCUCAACACAGCGUGGCAAAGUGGCUGUGGCUAGACUGCUUCUCUGGAUUCCUCGUCACUCAGCAGGGCAUCUCUGAGAGAAAUGCC [U52C C99U] ?
result: 0.64

query: May I ask what self-cleavage has been recorded for UACGUAGGUGGUUUUCCCCUGAUAGUGCUAAGGGGGCCUGGAAGUUUGGACUGGGCAGAGCUCAUCACAGCGUGGCAAAGUGGCUGUGGCUAGACUGCCUCUCUGGACUCCUCGUCACUCAGCAGGGCAUCUCUGAGAGAAAUGCC [A65U U108C] ?
result: 0.4

query: May I ask what self-cleavage has been recorded for UACGUAGGUGGGUUUCCCCUGAUAGUGCUAAGGGGGCCUGGAAGUUUGGACUGGGCAGAGCUCAACACAGCGUGGCAAAGUGGCUGUGGCUAGACUGCCUCUCCGGAUUCCUCGUCACUCAGCAGGGCAUCUCUGAGAGAAAUGCC [U12G U104C] ?
result: 1.48

query: May I ask what self-cleavage has been recorded for UACGUAGGUGGUUUUCCCCUGAUAGUGCUUAAGGGGCCUGGAAGUUUGGACUGGGCAGAGCUCAACACAGCGUGGCAAAGUGGCUGUGGCUAGACUGCCUCUCUGGAUUCCUCGUCACUCAGCAGGGCAUCUCUGAGAGAAAUGCC [A30U G32A] ?
result: 0.89

query: May I ask what self-cleavage has been recorded for UACGUAGGUGGUUUUCCCCUGAUAGUGCUAAGGGGGCCUGGAAGUUUGGACUGGGCAGAGCUCAACACAGCGUGGCAAAGUGGCUGUGGCUAGACUGCCUCUCUGGAUUCCUCGUCAUUCAGCAGGGCAUCUCUGAGUGAAAUGCC [C118U A138U] ?
result: 0.2

query: May I ask what self-cleavage has been recorded for UACGUAGGUGGUUUUCCCCUGAUAGUGCUAAGGGGGCCUGGAAGUUUGGACUGGGCAGAGCUCAACACAGCGUGGCAAAGUGGCUGUGGCUAGACUGCCUCUCUGGAUUCCUCGUCACACAGCAGGGCAUCUCAGAGAGAAAUGCC [U119A U134A] ?
result: 1.42

query: May I ask what self-cleavage has been recorded for UACGUAGGUGGUUUUCCCCUGAUAGUGCUAAGGGGGCCUGGAAGUAUGGACUGGGCAGAGCUCAACACAGCGUGGCAAAGUGGCUGUGGCUAGACUGCCUCUCUGGAUUCCUCGUCACUCAGCUGGGCAUCUCUGAGAGAAAUGCC [U46A A124U] ?
result: 1.11

query: May I ask what self-cleavage has been recorded for UACGUAGGUGGUUUUCCCCUGAAAGUGCUAAGGGGGCCUGGAAGUUUGGACUGGGCAGAGCUCAACACAGCGUGGCAAAGUGGCUGUGGCUAGACUGCCUCUCUGGUUUCCUCGUCACUCAGCAGGGCAUCUCUGAGAGAAAUGCC [U23A A107U] ?
result: 1.1

query: May I ask what self-cleavage has been recorded for UACGUAGGUGGUUUUCCCCUGAUAGUGCUUAGGGGGCCUGGAAGUUUGGACUGGGCAGAGCUCAACACAGCGUGGCAAAGUGGCUGUGGGUAGACUGCCUCUCUGGAUUCCUCGUCACUCAGCAGGGCAUCUCUGAGAGAAAUGCC [A30U C90G] ?
result: 0.09

query: May I ask what self-cleavage has been recorded for UACGUAGGUGGUUUUCCCCUGAUAGUGCUAAGGGAGCCUGGAAGUUUGGACUGGGCAGAGCUCAACACAGCGUGGCAAAGUGGCUGUGGCUAGACUGCCUCUCUGGUUUCCUCGUCACUCAGCAGGGCAUCUCUGAGAGAAAUGCC [G35A A107U] ?
result: 1.41
